# Test target: UniProt A0A7M4BDB7
# Sequence (A0A7M4BDB7 1109-1251): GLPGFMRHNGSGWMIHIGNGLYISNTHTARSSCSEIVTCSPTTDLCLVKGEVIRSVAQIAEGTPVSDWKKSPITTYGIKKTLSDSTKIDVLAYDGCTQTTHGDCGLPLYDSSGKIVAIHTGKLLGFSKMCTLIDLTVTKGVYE
# Protocol summary: cell-based
For each entry below, report its EC50 value.

response.value for O=C[C@@H](C[C@@H]1CCNC1=O)NC(=O)[C@H](CC1CCCCC1)NC(=O)OCc1cccc(Cl)c1 (field: EC50) = 0.46 µM

response.value for O=C(N[C@@H](CC1CCCCC1)C(=O)N[C@H](C[C@@H]1CCNC1=O)C(=O)C(=O)NC1CC1)OCc1cccc(Cl)c1 (field: EC50) = 9.8 µM

response.value for CC(C)CC(NC(=O)C(Cc1cccc2ccccc12)NC(=O)OCc1ccccc1)C(=O)NC(C=O)CC1CCNC1=O (centres unmarked) (field: EC50) = 4 µM

response.value for CC(C)C[C@H](NC(=O)OCc1ccccc1)C(=O)N[C@H](C[C@@H]1CCNC1=O)C(O)S(=O)(=O)O (some centres unmarked) (field: EC50) = 5.35 µM

response.value for O=C[C@@H](C[C@@H]1CCNC1=O)NC(=O)[C@H](CC1CCCCC1)NC(=O)OCc1ccccc1 (field: EC50) = 0.55 µM
